# Test system: K-562 leukemia
# RUN DESCRIPTION: NCI tumour cell line growth inhibition, 48 h
OBSERVABLE: TGI

Problem: If you can, please state the reported TGI value of O=C1CCCC1NC(=O)C(F)(F)F (stereo not drawn) .
Solution: > 100 µM

Problem: How about this molecule: OC(C/C(=N\N=C(/CC(O)(C(F)(F)F)C(F)(F)F)c1ccccc1)c1ccccc1)(C(F)(F)F)C(F)(F)F
Solution: > 10 µM

Problem: How about this molecule: COc1cc2cccc(NC(=O)c3cc(OC)c(OC)c(OC)c3Br)c2cc1OC
Solution: 46.6 µM

Problem: How about this molecule: C[CH2][Sn]([CH2]C)([O]C(=O)c1cccc(F)c1)[O][Sn]([CH2]C)([CH2]C)[O]C(=O)c1cccc(F)c1
Solution: 93.4 µM

Problem: How about this molecule: COCCNC(=O)c1ccc(-c2nc3ccc4[nH]ncc4c3c3c2CCCC3)cc1
Solution: > 100 µM

Problem: How about this molecule: CS/C(c1ccccc1)=[N+](/C)[O-]
Solution: > 100 µM

Problem: How about this molecule: CC(=O)OCC1OC(n2c(C)c(C(C)=O)c(-c3cccc4ccccc34)c(C#N)c2=S)C(OC(C)=O)C(OC(C)=O)C1OC(C)=O (stereo not drawn)
Solution: > 100 µM

Problem: How about this molecule: CC(=O)OC[C@@H](OC(C)=O)[C@@H](OC(C)=O)[C@H]1OC[C@@H]2C[C@H]([C@H]1OC(C)=O)N(Cc1ccccc1)O2
Solution: > 100 µM

Problem: How about this molecule: CN(C)/C=C/c1nnnn1-c1ccc(I)cc1
Solution: 44.5 µM

----------
# Tested on: PC-3 prostate
# RUN DESCRIPTION: NCI tumour cell line growth inhibition, 48 h
Examples of molecules with documented TGI follow.
Answer in µM, number only, no unit symbol.

Here are 3 molecules together with their reported answers.
MOLECULE: COc1cccc2c(=O)c3c(sc12)c(NCCN(C)C)nc1ccccc13
TGI [µM]: 3.03
//
MOLECULE: Clc1ccc2c(c1)-c1ccccc1C1=NCCN12
TGI [µM]: 6.83
//
MOLECULE: Oc1ccc(N=Nc2ccc(N=Nc3ccccc3)cc2)cc1
TGI [µM]: 16.8

Proceeding to the next molecule to report its TGI.
Problem: Quick check: TGI on PC-3 prostate, item O=CC1C[C@@H](N2C(=O)O[C@@H](c3ccccc3)[C@H]2c2ccccc2)[C@@H]1COCc1ccccc1 (stereo not given in full) ?
Solution: 43.1

----------
# Tested on: SK-MEL-2 melanoma
# RUN DESCRIPTION: NCI tumour cell line growth inhibition, 48 h
Where a SMILES comes first, the peptide text is derived from it. The star is where a group is joined. Cbz = O=C(OCc1ccccc1)*
OBSERVABLE: TGI

COMPOUND: CC(=O)N1C2=CCCC2(C)c2ccccc21 (stereo not given)
TESTED SYSTEM: SK-MEL-2 melanoma
TGI: > 100 µM

Problem: If you can, please state the reported TGI value of Clc1nc(Cl)c(Cc2ccccc2)c(Cl)n1 .
Solution: > 100 µM

Problem: How about this compound: CC(C)(C)[Si](C)(C)OCC#C[C@@]1(O)CCCCC1CC(Sc1ccccc1)Sc1ccccc1 (stereo not given in full)
Solution: 31.7 µM

Problem: How about this compound: CC(=O)OC[C@@H](OC(C)=O)[C@@H](OC(C)=O)[C@H]1OC[C@@H]2C[C@H]([C@H]1OC(C)=O)N(Cc1ccccc1)O2
Solution: > 100 µM

Problem: How about this compound: N#Cc1nc2cc(F)c(F)cc2nc1-c1ccc(Cl)cc1
Solution: 25.5 µM

Problem: How about this compound: O=[N+]([O-])c1ccc(NC(=S)Nc2ccccn2)cc1
Solution: > 100 µM

Problem: How about this compound: CS(=O)(=O)Nc1cc(-c2ccc3ncnc(Nc4ccc5c(cnn5Cc5ccccc5F)c4)c3c2)cnc1Cl
Solution: 4.65 µM

Problem: How about this compound: O=C1CCc2cc3c(cc21)CC1(Cc2cc4c(cc2C1)CCCC4)C3
Solution: > 100 µM

Problem: How about this compound: CN(C)CCNC(=O)c1cc2c3ccccc3[nH]c2c2ncccc12
Solution: 72.5 µM

Problem: How about this compound: CN1CCN(CCCCN2c3ccccc3Sc3ccc(N=[N+]=[N-])cc32)CC1
Solution: 12.9 µM

Problem: How about this compound: O=C(n1c(=O)n(-c2ccc(Cl)cc2)c(=O)n1C(=O)C(Cl)(Cl)Cl)C(Cl)(Cl)Cl
Solution: > 100 µM

Problem: How about this compound: CN(C)CCNC(=O)c1cc(-c2nccn2C)nc2ccccc12
Solution: > 100 µM

Problem: How about this compound: CCOC1C=CCCO1 (stereo not given)
Solution: > 100 µM

Problem: How about this compound: Cc1cc(=O)oc2cc(OCc3nc4ccccc4c(=O)[nH]3)ccc12
Solution: > 100 µM

Problem: How about this compound: CCN(CC)CCC(=O)c1ccc(Oc2ccccc2)cc1
Solution: > 100 µM

Problem: How about this compound: N#CC(NNC(=O)c1ccccc1O)c1ccccc1 (stereo not given)
Solution: > 100 µM

Problem: How about this compound: CCOC(=O)C(CC(=O)OC)NC(=O)C(CC(=O)OC)NC(=O)C(CC(=O)OC)NC(=O)C(CC(=O)OC)NC(=O)OCc1ccccc1 (stereo not given) (Cbz-D(OMe)D(OMe)D(OMe)D(OMe)-OEt; configuration not given here)
Solution: > 100 µM

Problem: How about this compound: O=C1c2c(nc3ccccc3c2-c2ccccc2)CN1Nc1ccccc1
Solution: > 100 µM

Problem: How about this compound: COc1ccc2c(c1)N=C1CSC(c3c(Cl)cccc3[N+](=O)[O-])N1C2 (stereo not given)
Solution: > 100 µM

Problem: How about this compound: COc1cc(-c2oc(C=Nc3ccccc3)c([N+](=O)[O-])c2-c2ccc(O)c(OC)c2)ccc1O
Solution: > 100 µM

----------
# Test system: RPMI-8226 leukemia
# RUN DESCRIPTION: NCI tumour cell line growth inhibition, 48 h; in the data active = GI50 below about 0.43 µM; inactive = the rest
Thanks in advance; please answer with one of these: t (active), f (inactive)

Answered cases to consult:
COMPOUND: N#CC1=C(N)Oc2c(sc3c(F)cccc23)C1c1ccc(F)cc1 (centres undefined)
GROUP LABEL: f

COMPOUND: C=C1CC[C@@H]2[C@](C)(COC(C)=O)[C@H](OC(C)=O)CC[C@@]2(C)[C@@H]1C/C=C1/C(=O)OC[C@H]1OC(C)=O
GROUP LABEL: f

Problem: Assay result, entry COc1ccc2nc(C)cc(Nc3ccccc3O)c2c1 — outcome?
Solution: f

Problem: How about this compound: COc1ccc(/C=C/C(=O)c2cc3c(N)c(C(=O)Nc4ccccc4)sc3nc2C)cc1
Solution: t

Problem: How about this compound: CN(C)c1ccc(O)c2c1C[C@H]1C[C@H]3[C@H](N(C)C)C(=O)C(C(N)=O)=C(O)[C@@]3(O)C(=O)C1=C2O
Solution: f

Problem: How about this compound: CC(C)C[C@@H]1NC(=O)[C@@H]2CCCN2C(=O)[C@@H]2CCCN2C(=O)[C@H](CC(C)C)NC(=O)[C@H](CO)NC(=O)[C@H](CCCCN)NC(=O)[C@H]([C@H](C)O)NC(=O)[C@@H]2CCCC[C@@H](NC1=O)C(=O)N[C@@H](Cc1ccccc1)C(=O)N1CCC[C@H]1C(=O)N[C@@H](CC(=O)O)C(=O)NCC(=O)N[C@@H](CCCN=C(N)N)C(=O)N2
Solution: f

Problem: How about this compound: CC1/C(=N/Nc2ccc([N+](=O)[O-])cc2)CC2C3(C)CCC2(C(C)C(=O)O)C(=O)C13 (centres undefined)
Solution: f

Problem: How about this compound: Oc1ccc(N=Nc2ccc(N=Nc3ccccc3)cc2)cc1
Solution: f

Problem: How about this compound: C[CH2][Sn]([Cl])([Cl])[CH2]C
Solution: f

----------
# Test system: COLO 205 colon
# RUN DESCRIPTION: NCI tumour cell line growth inhibition, 48 h
Examples of molecules with documented log10 of TGI follow.
Hello, just confirming the data are log10 of TGI with units of µM.

Here are 3 molecules together with their reported answers.
MOLECULE: COc1ccc2nc3ccc(OC)cc3c(SCC3CO3)c2c1 (stereo not given)
REPORTED RESULT: 1.62
//
MOLECULE: C[CH2][Sn]([CH2]C)([O]C(=O)c1cccc(F)c1)[O][Sn]([CH2]C)([CH2]C)[O]C(=O)c1cccc(F)c1
REPORTED RESULT: 1.51
//
MOLECULE: O=c1n(CCCCn2c(=O)n(CC3CS3)c3ccccc32)c2ccccc2n1CC1CS1 (stereo not given)
REPORTED RESULT: 1.55

Problem: If you can, please state the reported log10 of TGI value of COc1cc(/C=C2/C(=O)NC(Cc3cc(OC)c(OC)c(C)c3OC)C(=O)N2Cc2ccccc2)c(OC)c(C)c1OC (stereo not given) .
Solution: 1.54

Problem: How about this molecule: C=C1CC[C@@H]2[C@](C)(COC(C)=O)[C@H](OC(C)=O)CC[C@@]2(C)[C@@H]1C/C=C1/C(=O)OC[C@H]1OC(C)=O
Solution: 1.06

Problem: How about this molecule: O=C(/C=C/c1ccc(C(F)(F)F)cc1)c1ccc(Nc2nc(NCCO)nc(N3CCOCC3)n2)cc1
Solution: 0.61
